tested on: Escherichia coli ATCC 25922; assay: microbe, parasite or virus in culture; format: cell-based; settings: ATCC25922
Give MIC for every item shown.

Fill in MIC for each of the 3 molecules listed.
1. COc1ccc2ccc(=O)n(CCCN3CC[C@@H]4[C@@H](C3)OC(=O)N4c3ccc4c(n3)NC(=O)CO4)c2n1 (relative stereo)
2. COc1ccc2ccc(=O)n(CCCN3CC[C@H]4[C@@H](C3)OC(=O)N4c3ccc4c(n3)NC(=O)CO4)c2n1 (relative stereo)
3. N#Cc1ccc2ccc(=O)n(CCCN3CC[C@@H]4[C@H](C3)OC(=O)N4c3ccc4c(n3)NC(=O)CO4)c2c1 (relative stereo)

1: < 1 µg/mL; 2: < 1 µg/mL; 3: < 1 µg/mL

Fill in MIC for each of the 2 molecules listed.
1. N#Cc1ccc2ccc(=O)n(CCCN3CC[C@@H]4[C@@H](C3)OC(=O)N4c3ccc4c(n3)NC(=O)CO4)c2c1 (relative stereo)
2. O=C1COc2ccc(N3C(=O)O[C@H]4CN(CCCn5c(=O)ccc6ccccc65)CC[C@H]43)nc2N1 (relative stereo)

1. < 1 µg/mL
2. 1 to 10 µg/mL
